- target_entity: F508delCFTR (Homo sapiens, UniProt P13569, DEL508-508)
- Construct: expressed in transfected cells; host or cells: CFBE41o- human lung-derived epithelial cells (CFBE4lo-F508delCFTR-HRP), doxycycline-inducible
- Sequence (P13569 with tags, fused parts or gaps DEL508-508): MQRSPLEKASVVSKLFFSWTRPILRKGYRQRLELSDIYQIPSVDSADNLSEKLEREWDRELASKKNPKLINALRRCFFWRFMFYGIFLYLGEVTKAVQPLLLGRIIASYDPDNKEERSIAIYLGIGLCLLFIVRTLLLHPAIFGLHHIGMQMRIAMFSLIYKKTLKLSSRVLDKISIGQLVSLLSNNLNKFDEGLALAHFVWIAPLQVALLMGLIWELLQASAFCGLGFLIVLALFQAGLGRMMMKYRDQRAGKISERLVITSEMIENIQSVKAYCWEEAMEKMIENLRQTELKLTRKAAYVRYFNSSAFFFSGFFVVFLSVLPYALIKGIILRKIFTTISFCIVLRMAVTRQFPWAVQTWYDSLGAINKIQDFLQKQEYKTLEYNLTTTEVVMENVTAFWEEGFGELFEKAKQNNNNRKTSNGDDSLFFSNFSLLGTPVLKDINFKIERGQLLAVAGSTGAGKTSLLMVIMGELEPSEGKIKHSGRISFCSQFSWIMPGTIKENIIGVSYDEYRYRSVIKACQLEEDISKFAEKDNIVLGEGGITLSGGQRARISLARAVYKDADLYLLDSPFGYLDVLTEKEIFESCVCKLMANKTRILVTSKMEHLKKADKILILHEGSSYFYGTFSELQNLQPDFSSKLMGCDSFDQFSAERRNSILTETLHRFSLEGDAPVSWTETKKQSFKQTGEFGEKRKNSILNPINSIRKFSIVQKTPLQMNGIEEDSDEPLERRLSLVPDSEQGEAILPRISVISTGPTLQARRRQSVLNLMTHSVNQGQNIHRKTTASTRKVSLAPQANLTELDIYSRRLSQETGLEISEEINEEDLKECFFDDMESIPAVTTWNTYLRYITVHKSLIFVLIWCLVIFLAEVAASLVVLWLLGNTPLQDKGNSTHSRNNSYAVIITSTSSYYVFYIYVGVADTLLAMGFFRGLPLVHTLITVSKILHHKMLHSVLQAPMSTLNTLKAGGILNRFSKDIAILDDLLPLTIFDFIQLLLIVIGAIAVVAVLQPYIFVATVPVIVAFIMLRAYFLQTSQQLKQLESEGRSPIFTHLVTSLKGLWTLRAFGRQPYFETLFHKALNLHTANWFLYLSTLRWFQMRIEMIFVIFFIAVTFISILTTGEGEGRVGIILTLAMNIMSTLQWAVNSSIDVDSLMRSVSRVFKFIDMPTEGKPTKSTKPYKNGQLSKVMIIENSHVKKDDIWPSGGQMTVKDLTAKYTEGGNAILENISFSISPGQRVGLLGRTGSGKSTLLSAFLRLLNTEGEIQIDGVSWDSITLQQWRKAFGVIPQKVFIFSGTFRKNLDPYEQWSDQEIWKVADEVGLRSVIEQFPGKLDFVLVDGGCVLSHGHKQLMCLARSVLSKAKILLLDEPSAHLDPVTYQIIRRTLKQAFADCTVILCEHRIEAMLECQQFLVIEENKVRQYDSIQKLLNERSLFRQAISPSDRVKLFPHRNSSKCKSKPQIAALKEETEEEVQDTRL
- assay_notes: Cell Surface Expression-Horse Radish Peroxidase (CSE-HRP) Assay
- Assay type: cell-based
- condition_parameters: test compound without co-corrector; read-out: EC50 (without co-corrector)
pEC50: −log10 of the molar value.
Some compounds, each annotated with its measured pEC50.

Would you please look over these solved cases?
# compound, pEC50
data = [
    ("C/C=C/CC(C/C=C/C)C(=O)N1[C@H](C(=O)O)[C@@H](C(C)(C)C)[C@H](NCc2cc(C(C)(C)C)ccc2OC)[C@@H]1c1ccccc1", "5.00 to 6.00"),
    ("COc1ccc(C(C)(C)C)cc1CN[C@H]1[C@H](C(C)(C)C)[C@@H](C(=O)O)N(C(=O)C2CCc3cc(F)ccc3O2)[C@H]1c1cccnc1N(C)C (some centres unmarked) [II-482]", "5.00 to 6.00"),
    ("COc1cc2ccccc2cc1CN[C@H]1[C@H](C(C)(C)C)[C@@H](C(=O)O)N(C(=O)OC(C)C)[C@H]1c1ccccc1", "5.00 to 6.00"),
]

# input Entry COc1cc2c(cc1CN[C@@H]1[C@H](C(C)(C)C)[C@@H](C(=O)O)N(C(=O)OC(C)C)[C@H]1c1ccccc1)CCC2 has what pEC50?
# output 5.00 to 6.00

# input Entry COc1ncc(C(F)(F)F)cc1N[C@H]1[C@H](C(C)(C)C)[C@@H](C(=O)O)N(C(=O)[C@H]2CCCCO2)[C@H]1c1cccnc1N(C)C has what pEC50?
# output < 5.00

# input Entry COc1ccc(C(C)(C)C)cc1CN[C@H]1[C@H](C(C)(C)C)[C@@H](C(=O)O)N(C(=O)C2CCC(C)(C)C2)[C@H]1c1ccccc1 (some centres unmarked) has what pEC50?
# output 5.00 to 6.00

# input Entry COc1ccc(C2(C(F)(F)F)CC2)cc1CN[C@H]1[C@H](C(C)(C)C)[C@@H](C(=O)O)N(C(=O)C2Cc3ccccc3O2)[C@H]1c1cccnc1N(C)C (single isomer, unassigned) [Example 37] has what pEC50?
# output > 6.00

# input Entry CC(C)(C)[C@@H]1[C@@H](Nc2ccc(C(F)(F)F)cn2)[C@@H](c2ccccc2)N(C(=O)C2CCCCC2)[C@H]1C(=O)O (racemic) has what pEC50?
# output 5.00 to 6.00

# input Entry COc1ccc(C(C)(C)C)cc1CN[C@H]1[C@H](C(C)(C)C)[C@@H](C(=O)O)N(C(=O)C2(C)CCc3cc(C)ccc32)[C@H]1c1ccccc1 (some centres unmarked) has what pEC50?
# output 5.00 to 6.00

# input Entry COc1cnc(C2CCCCC2)cc1CN[C@H]1[C@H](C(C)(C)C)[C@@H](C(=O)O)N(C(=O)C2CCCCC2)[C@H]1c1ccccc1 has what pEC50?
# output 5.00 to 6.00

# input Entry CC(C)Oc1ccc(Cl)cc1CN[C@H]1[C@H](C(C)(C)C)[C@@H](C(=O)O)N(C(=O)C2CCCCC2)[C@H]1c1ccccc1 has what pEC50?
# output 5.00 to 6.00

# input Entry Cc1cc(C(F)(F)F)cc(N[C@@H]2[C@@H](C(C)(C)C)[C@H](C(=O)NS(=O)(=O)C3CC3)N(C(=O)C3CCCCC3)[C@@H]2c2ccccc2)n1 (racemic) has what pEC50?
# output < 5.00

# input Entry COc1ccc(C(F)(F)F)cc1CN[C@H]1[C@H](C(C)(C)C)[C@@H](C(=O)O)N(C(=O)C2CCCCC2)[C@H]1c1cccnc1N(C)C has what pEC50?
# output 5.00 to 6.00

# input Entry COc1ccc(-c2ccccc2)cc1CN[C@H]1[C@H](C(C)(C)C)[C@@H](C(=O)O)N(C(=O)[C@@H]2CCCCO2)[C@H]1c1cccnc1N(C)C has what pEC50?
# output 5.00 to 6.00

# input Entry COc1ccc(C(F)(F)F)cc1CN[C@H]1[C@H](C(C)(C)OC)[C@@H](C(=O)O)N(C(=O)C2CCCCC2)[C@H]1c1ccccc1 has what pEC50?
# output 5.00 to 6.00

# input Entry COc1nc(C(C)(C)C)ccc1CN[C@H]1[C@H](C(C)(C)C)[C@@H](C(=O)O)N(C(=O)[C@H](C)c2ccccc2)[C@H]1c1ccccc1 has what pEC50?
# output 5.00 to 6.00

# input Entry CC(C)(C)[C@H]1[C@H](NCc2cc3c(cc2Cl)OCO3)[C@H](c2ccccc2)N(C(=O)C2CCCCC2)[C@@H]1C(=O)O has what pEC50?
# output 5.00 to 6.00

###

- target_entity: F508delCFTR (Homo sapiens, UniProt P13569, DEL508-508)
- Construct: expressed in transfected cells; host or cells: CFBE41o- human lung-derived epithelial cells (CFBE4lo-F508delCFTR-HRP), doxycycline-inducible
- assay_notes: Cell Surface Expression-Horse Radish Peroxidase (CSE-HRP) Assay
- Format: cell-based
- condition_parameters: test compound without co-corrector; read-out: EC50 (without co-corrector)
pEC50: −log10 of the molar value.
Some compounds, each annotated with its measured pEC50.

Would you please look over these solved cases?
# compound, metric_name, result
measured = [
    ("COc1ncc(C2=CCOCC2)cc1CN[C@H]1[C@H](C(C)(C)C)[C@@H](C(=O)O)N(C(=O)C2CCCCC2)[C@H]1c1ccccc1 [II-349]", "pEC50", "5.00 to 6.00"),
    ("COc1ccc(C(C)(C)C)cc1CN[C@H]1[C@H](C(C)(C)C)[C@@H](C(=O)O)N(C(=O)C2CCCCO2)[C@H]1c1cccnc1OC(F)F (single isomer, unassigned) [II-490]", "pEC50", "5.00 to 6.00"),
    ("COc1ccc(C(C)(C)C)cc1CN[C@H]1[C@H](C(C)(C)C)[C@@H](C(=O)O)N(C(=O)[C@H]2CCCCO2)[C@H]1c1cccnc1N(C)C [Example 19]", "pEC50", "5.00 to 6.00"),
    ("COc1ccc([Si](C)(C)C)cc1CN[C@H]1[C@H](C(C)(C)C)[C@@H](C(=O)O)N(C(=O)[C@H]2CCCC(F)(F)C2)[C@H]1c1ccccc1 [II-441]", "pEC50", "> 6.00"),
    ("COc1ncc(C(F)(F)F)cc1CN[C@H]1[C@H](C(C)(C)C)[C@@H](C(=O)O)N(C(=O)OC(C)C)[C@H]1c1ccccc1C [II-580]", "pEC50", "5.00 to 6.00"),
    ("COc1ncc(C(F)(F)F)cc1N[C@H]1[C@H](C(C)(C)C)[C@@H](C(=O)O)N(C(=O)[C@H]2CCCC[C@@H]2C(F)(F)F)[C@H]1c1cccnc1N(C)C [III-212]", "pEC50", "< 5.00"),
    ("COc1cc(C(F)(F)F)ccc1CN[C@H]1[C@H](C(C)(C)C)[C@@H](C(=O)O)N(C(=O)C(C)c2ccccc2)[C@H]1c1ccccc1 (relative stereo) [Example 11]", "pEC50", "5.00 to 6.00"),
    ("COc1cc(C(F)(F)F)ccc1CN[C@@H]1[C@@H](C(C)(C)C)[C@H](C(=O)O)N(C(=O)C2COCCO2)[C@@H]1c1ccccc1 (mixture of isomers) [III-113]", "pEC50", "5.00 to 6.00"),
    ("COc1ccc2ccccc2c1CN[C@H]1[C@H](C(C)(C)C)[C@@H](C(=O)O)N(C(=O)C2CCCCC2)[C@H]1c1ccccc1 [Example I-188]", "pEC50", "5.00 to 6.00"),
    ("COc1cc2c(cc1CN[C@H]1[C@H](C(C)(C)C)[C@@H](C(=O)O)N(C(=O)OC(C)C)[C@H]1c1ccccc1)CCC2 [III-226]", "pEC50", "5.00 to 6.00"),
]

# input State its pEC50 on F508delCFTR (Homo sapiens, UniProt P13569, DEL508-508): COc1ccc(C(C)(C)C)cc1CN[C@H]1[C@H](C(C)(C)C)[C@@H](C(=O)O)N(C(=O)OC(C)C)[C@H]1c1ccccc1C [II-582]
# output 5.00 to 6.00

# input State its pEC50 on F508delCFTR (Homo sapiens, UniProt P13569, DEL508-508): COc1ncc(C(F)(F)F)cc1CN[C@H]1[C@H](C(C)(C)C)[C@@H](C(=O)O)N(C(=O)OC(C)C)[C@H]1c1ccccc1C(C)C [Example 77]
# output 5.00 to 6.00

# input State its pEC50 on F508delCFTR (Homo sapiens, UniProt P13569, DEL508-508): COc1ccc(C(F)(F)F)cc1CN[C@H]1[C@H](C2(C)CC2)[C@@H](C(=O)O)N(C(=O)C2CCCCC2)[C@H]1c1ccccc1 [Example I-136]
# output 5.00 to 6.00
